Each entry below carries its recorded exchange rate with Pos peptide.
- targetUnderTest: T1, HLA-A*24:02 (human, biotinylated heavy chain)
- T1 construct: Conditional HLA class I complex whose UV-labile peptide is exchanged for the test peptide
- assayOverview: UV-induced peptide exchange, HLA class I ELISA; Pos peptide = 100%;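 note: Streptavidin-captured biotinylated HLA class I complexes detected by HRP-conjugated anti-human B2M antibody, absorbance readout of intact complex amount after exchange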

>>> print(df.to_string())
                                     binder                       valuekind  observedmeasurement
0  IQYSCMGLM (9-mer fragment of neoantigen P50; synthetic peptide) [P50 9-mer IQYSCMGLM]  exchange rate with Pos peptide                 0.1%
1  NMVENGCYL (9-mer fragment of neoantigen P59; synthetic peptide) [P59 9-mer NMVENGCYL]  exchange rate with Pos peptide                -0.5%
2  STRRAVRRM (9-mer fragment of neoantigen P16 (MSMB-NCOA4 fusion); synthetic peptide) [P16 9-mer STRRAVRRM]  exchange rate with Pos peptide                 0.8%

As a next step, examine the binder that follows.
-- ask # get_value(readout='exchange rate with Pos peptide', item= FPVGAEGTF (9-mer fragment of neoantigen P27; synthetic peptide) [P27 9-mer FPVGAEGTF] )
-- reply 0.7%
